- SUBJECT OF TEST: DRB1*0401 (Homo sapiens, UniProt P01903+P01911, A100K/A169T/F76Y/I96L/K127E/L162R/M171V/N62H/P40V/Q125Y/R42H/S133A/S149N/S66Y/V115G/V209L/W38E)
- ASSAY DETAILS: MHC-peptide competition binding assay on isolated DRB1*0401 molecules
- Description: T-cell responses to the selected peptides in patients are analysed by studying T-cell proliferation of peripheral blood lymphocytes (PBL) and synovial fluid derived cells. […] The MHC binding affinity of the selected peptides is analysed for the most-common MHC class II-arthritis associations. […] # MHC-peptide binding was measured as described in Wauben et al., Int. […] Peptide binding is expressed as tire IC50.
pIC50: −log10 of the molar value. Ends that are not written are not given here.
QUANTITY NAME: pIC50

> print(dat)
                        biopolymer.sequence  assay.result
1  QGTIDTAVLHLDTNL [SEQ ID NO: 72, QGTIDTAVLHLDTNL]  4.80 to 5.10
